In what follows, each item is paired with its AC50 for Glucocorticoid receptor (Homo sapiens).

Illustrative cases are given below, each with its answer.
Compound	Experimental target	AC50
[H]/N=C(/N)N[C@H]1[C@H](O)[C@@H](O)[C@H](O[C@@H]2O[C@@H](C)[C@](O)(C=O)[C@H]2O[C@@H]2O[C@@H](CO)[C@H](O)[C@@H](O)[C@@H]2NC)[C@@H](N/C(N)=N\[H])[C@@H]1O [STREPTOMYCIN]	Glucocorticoid receptor (Homo sapiens)	> 30 µM
Clc1ccc(C(Cn2ccnc2)OCc2ccc(Sc3ccccc3)cc2)c(Cl)c1 (stereo not drawn) [FENTICONAZOLE]	Glucocorticoid receptor (Homo sapiens)	> 30 µM

Query compound follows.
Task: What value of AC50 on Glucocorticoid receptor (Homo sapiens) does COc1cc2c(Nc3ccc(Br)cc3F)ncnc2cc1OCC1CCN(C)CC1 [VANDETANIB] have?
Result: > 30 µM

---

Items are presented alongside their recorded AC50.
# Experimental target: Thromboxane A2 receptor (Homo sapiens, UniProt P21731); also: assay procedure not described here
# Sequence (P21731 whole entry): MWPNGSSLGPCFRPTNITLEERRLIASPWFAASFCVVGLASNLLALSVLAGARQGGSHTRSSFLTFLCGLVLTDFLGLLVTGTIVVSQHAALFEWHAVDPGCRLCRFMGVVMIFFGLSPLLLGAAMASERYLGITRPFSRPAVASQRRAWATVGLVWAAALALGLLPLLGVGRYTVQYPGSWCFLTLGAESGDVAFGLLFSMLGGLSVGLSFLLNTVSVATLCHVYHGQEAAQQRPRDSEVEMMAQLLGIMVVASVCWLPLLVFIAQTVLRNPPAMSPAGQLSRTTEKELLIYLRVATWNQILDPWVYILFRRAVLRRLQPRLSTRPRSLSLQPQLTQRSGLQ
# Assay type: functional, cell-based

Compound	Experimental target	AC50
CN(C)CCC(c1ccccc1)c1ccccn1 (stereo not drawn)	Thromboxane A2 receptor (Homo sapiens, UniProt P21731)	> 30 µM
c1ccc2c(CC3=NCCN3)cccc2c1	Thromboxane A2 receptor (Homo sapiens, UniProt P21731)	> 30 µM
C[C@@H]1C[C@H]2[C@@H]3CCC4=CC(=O)C=C[C@]4(C)C3=CC[C@]2(C)[C@H]1C(=O)CN1CCN(c2cc(N3CCCC3)nc(N3CCCC3)n2)CC1	Thromboxane A2 receptor (Homo sapiens, UniProt P21731)	> 30 µM
CN(C)C(=O)c1nc(CNC(=O)CN)n(-c2ccc(Cl)cc2C(=O)c2ccccc2Cl)n1	Thromboxane A2 receptor (Homo sapiens, UniProt P21731)	> 30 µM
CNC(=O)c1cc(Oc2ccc(NC(=O)Nc3ccc(Cl)c(C(F)(F)F)c3)c(F)c2)ccn1	Thromboxane A2 receptor (Homo sapiens, UniProt P21731)	6.35 µM

Task: May I ask what AC50 has been recorded for CC(C)(N)C(=O)N[C@H](Cc1c[nH]c2ccccc12)C(=O)N[C@H](Cc1c[nH]c2ccccc12)NC=O ?
Result: > 30 µM

Task: May I ask what AC50 has been recorded for CC(N)CCCC(C)(C)O (stereo not drawn) ?
Result: > 30 µM

Task: May I ask what AC50 has been recorded for CC1(C)O[C@@H]2C[C@H]3[C@@H]4CCC5=CC(=O)CC[C@]5(C)[C@@]4(F)[C@@H](O)C[C@]3(C)[C@]2(C(=O)CCl)O1 [HALCINONIDE] ?
Result: > 30 µM

Task: May I ask what AC50 has been recorded for CCCCCCCCCCC[C@@H](C[C@@H]1OC(=O)[C@H]1CCCCCC)OC(=O)[C@H](CC(C)C)NC=O ?
Result: > 30 µM

Task: May I ask what AC50 has been recorded for CCCCCCCC(=O)N[C@H](CN1CCCC1)[C@H](O)c1ccc2c(c1)OCCO2 ?
Result: > 30 µM

Task: May I ask what AC50 has been recorded for O=C(O)COc1nn(Cc2ccccc2)c2ccccc12 ?
Result: > 3 µM

Task: May I ask what AC50 has been recorded for C[C@]12CC[C@@H]3c4ccc(O)cc4CC[C@H]3[C@@H]1CC[C@@H]2OC(=O)CCC1CCCC1 [ESTRADIOL CYPIONATE] ?
Result: > 30 µM

Task: May I ask what AC50 has been recorded for CNC(=O)C[C@@H](N)C(=O)N[C@@H](C(=O)N[C@@H]1C(=O)N2[C@@H]1SC(C)(C)[C@@H]2C(=O)O)c1ccc(O)cc1 ?
Result: > 30 µM

Task: May I ask what AC50 has been recorded for Cc1cc2c(OCC(O)CNC(C)C)cccc2[nH]1 (stereo not drawn) [MEPINDOLOL] ?
Result: > 30 µM

---

# Experimental target: D(1A) dopamine receptor (Homo sapiens, UniProt P21728)
# Sequence (P21728 whole entry): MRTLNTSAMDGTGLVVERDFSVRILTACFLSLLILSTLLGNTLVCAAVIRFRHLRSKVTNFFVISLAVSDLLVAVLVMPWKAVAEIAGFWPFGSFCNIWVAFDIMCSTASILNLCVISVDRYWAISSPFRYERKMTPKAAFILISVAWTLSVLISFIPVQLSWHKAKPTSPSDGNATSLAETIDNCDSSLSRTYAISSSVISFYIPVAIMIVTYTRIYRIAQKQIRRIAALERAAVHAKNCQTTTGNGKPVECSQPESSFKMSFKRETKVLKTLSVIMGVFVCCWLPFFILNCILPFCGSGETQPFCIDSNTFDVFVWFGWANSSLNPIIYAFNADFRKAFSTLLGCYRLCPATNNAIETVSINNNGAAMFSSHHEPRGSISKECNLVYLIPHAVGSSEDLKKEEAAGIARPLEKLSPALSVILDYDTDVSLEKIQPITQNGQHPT
Metric name: AC50

Illustrative cases are given below, each with its answer.
Compound	AC50
O=C1Nc2ccc(Cl)cc2C(c2ccccc2)=NC1O (centres undefined) [OXAZEPAM]	> 10 µM
CNCCC=C1c2ccccc2CCc2ccccc21 [NORTRIPTYLINE]	0.386 µM
CN1C[C@H](C(=O)N[C@]2(C)O[C@@]3(O)[C@@H]4CCCN4C(=O)[C@H](Cc4ccccc4)N3C2=O)C[C@@H]2c3cccc4[nH]cc(c34)C[C@H]21 [DIHYDROERGOTAMINE]	5.47 µM
CC(CCc1ccccc1)NC(C)C(O)c1ccc(O)cc1 (centres undefined) [NYLIDRIN]	> 10 µM
CCCN(CCC)CCc1cccc2c1CC(=O)N2 [ROPINIROLE]	> 10 µM

Task: What value of AC50 on D(1A) dopamine receptor (Homo sapiens, UniProt P21728) does COC(=O)[C@H](c1ccccc1Cl)N1CCc2sccc2C1 [CLOPIDOGREL] have?
Result: > 10 µM

Task: What value of AC50 on D(1A) dopamine receptor (Homo sapiens, UniProt P21728) does N[C@H](Cc1cc(I)c(Oc2cc(I)c(O)c(I)c2)c(I)c1)C(=O)O [DEXTROTHYROXINE] have?
Result: > 10 µM

Task: What value of AC50 on D(1A) dopamine receptor (Homo sapiens, UniProt P21728) does Cn1c(=O)c2[nH]cnc2n(C)c1=O [THEOPHYLLINE] have?
Result: > 10 µM

Task: What value of AC50 on D(1A) dopamine receptor (Homo sapiens, UniProt P21728) does CCCCC[C@H](O)/C=C/[C@H]1[C@H](O)CC(=O)[C@@H]1C/C=C\CCCC(=O)O [DINOPROSTONE] have?
Result: > 30 µM

---

In what follows, each item is paired with its AC50 for D(1A) dopamine receptor (Homo sapiens, UniProt P21728).

Illustrative cases are given below, each with its answer.
Compound	Experimental target	AC50
CN1CCC[C@@H]1Cc1c[nH]c2ccc(CCS(=O)(=O)c3ccccc3)cc12	D(1A) dopamine receptor (Homo sapiens, UniProt P21728)	27.7 µM
c1ccc2c(CC3=NCCN3)cccc2c1 [NAPHAZOLINE]	D(1A) dopamine receptor (Homo sapiens, UniProt P21728)	> 30 µM
COC(=O)C1=C(C)NC(C)=C(C(=O)O[C@H]2CCN(Cc3ccccc3)C2)[C@H]1c1cccc([N+](=O)[O-])c1 [BARNIDIPINE]	D(1A) dopamine receptor (Homo sapiens, UniProt P21728)	8.89 µM
Nc1ccncc1 [DALFAMPRIDINE]	D(1A) dopamine receptor (Homo sapiens, UniProt P21728)	> 30 µM
O=C(Oc1ccccc1C(=O)O)c1ccccc1O [SALSALATE]	D(1A) dopamine receptor (Homo sapiens, UniProt P21728)	> 30 µM
CNC(=O)Oc1ccc2c(c1)[C@]1(C)CCN(C)[C@@H]1N2C [PHYSOSTIGMINE]	D(1A) dopamine receptor (Homo sapiens, UniProt P21728)	> 30 µM

Query compound follows.
Task: May I ask what AC50 has been recorded for O=S(=O)(O)CCS [2-MERCAPTOETHANESULFONIC ACID] ?
Result: > 30 µM

---

Items are presented alongside their recorded AC50.
# Experimental target: UniProt P0DMS8
# Sequence (P0DMS8 whole entry): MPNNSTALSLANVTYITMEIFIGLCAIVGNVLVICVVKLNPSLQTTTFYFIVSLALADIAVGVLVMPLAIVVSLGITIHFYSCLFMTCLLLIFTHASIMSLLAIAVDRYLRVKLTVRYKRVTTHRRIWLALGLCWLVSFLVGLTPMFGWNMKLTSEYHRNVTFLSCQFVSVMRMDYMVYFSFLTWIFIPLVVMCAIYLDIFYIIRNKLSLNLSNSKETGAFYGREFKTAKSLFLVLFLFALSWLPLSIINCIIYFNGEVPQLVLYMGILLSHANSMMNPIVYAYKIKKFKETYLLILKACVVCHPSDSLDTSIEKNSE

Compound	AC50
O=C(O)c1ccccc1Nc1cccc(C(F)(F)F)c1	26.3 µM
CC(CCc1ccccc1)NC(C)C(O)c1ccc(O)cc1 (centres undefined)	> 30 µM
NC(=O)c1ncn([C@@H]2O[C@H](CO)[C@@H](O)[C@H]2O)n1	> 10 µM
C[C@]12CC[C@H](O)CC1=CC[C@@H]1[C@@H]2CC[C@]2(C)C(c3cccnc3)=CC[C@@H]12	> 30 µM
Nc1ccc(C(=O)O)c(O)c1	> 30 µM
CCCN(CCC)CCc1cccc2c1CC(=O)N2	> 30 µM
O=C(O)CSCC(=O)NC1CCSC1=O (centres undefined)	> 30 µM
CO/N=C(\C(=O)N[C@@H]1C(=O)N2C(C(=O)O)=C(COC(N)=O)CS[C@H]12)c1ccco1	> 30 µM

Task: May I ask what AC50 has been recorded for Cc1ccc(=O)n(-c2ccccc2)c1 ?
Result: > 30 µM

Task: May I ask what AC50 has been recorded for CN1CCN(c2c(F)cc3c(=O)c(C(=O)O)cn4c3c2SCC4)CC1 ?
Result: > 30 µM

Task: May I ask what AC50 has been recorded for CCc1oc2ccccc2c1C(=O)c1cc(Br)c(O)c(Br)c1 ?
Result: 4.19 µM

// data source = ChEMBL document CHEMBL5291721
